# Tested Target: ABI1 with AtPYR1 (Arabidopsis thaliana)
# Construct: His; made in house
# Sequence (O49686 whole entry): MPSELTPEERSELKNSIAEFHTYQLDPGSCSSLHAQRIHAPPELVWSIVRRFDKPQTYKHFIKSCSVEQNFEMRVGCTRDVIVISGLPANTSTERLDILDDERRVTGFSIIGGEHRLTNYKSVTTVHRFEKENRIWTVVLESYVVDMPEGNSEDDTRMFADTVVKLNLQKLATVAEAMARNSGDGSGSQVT
# Sequence (P49597 whole entry partner): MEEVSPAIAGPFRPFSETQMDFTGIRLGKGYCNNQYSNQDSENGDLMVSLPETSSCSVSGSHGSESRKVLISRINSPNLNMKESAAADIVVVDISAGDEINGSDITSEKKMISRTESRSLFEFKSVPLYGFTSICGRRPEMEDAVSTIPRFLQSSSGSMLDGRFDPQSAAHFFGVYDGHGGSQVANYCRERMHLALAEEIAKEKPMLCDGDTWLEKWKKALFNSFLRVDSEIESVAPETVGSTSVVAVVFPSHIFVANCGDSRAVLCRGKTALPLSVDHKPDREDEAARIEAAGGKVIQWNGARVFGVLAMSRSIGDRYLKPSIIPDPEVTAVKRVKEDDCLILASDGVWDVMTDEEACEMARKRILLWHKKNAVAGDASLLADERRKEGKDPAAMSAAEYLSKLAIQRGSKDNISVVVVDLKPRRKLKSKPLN
# Test Summary: PP2C inhibition assay, ABI1 with AtPYR1
# Format: biochemical
# Measurement Setup: 1 µM phosphatase:2 µM receptor; read-out: IC50 of ABI1 with AtPYR1
Measured Metric: IC50 (nM)
Express the result in nM but write the number alone.

[Q] IC50 for CCn1c(=O)cc(C)c2cc(CNS(=O)(=O)c3ccccc3)ccc21 [iSB09] ?
[A] 213
